- target_of_assay: T1, human serum albumin (human, UniProt P02768 25-609)
- T1 construct: Negative control protein; also called HSA
- measurement_notes: ELISA with Expi293 culture medium used directly, coated HSA, anti-Fc detection
metric_name: binding result

- Clone 1 VNAR-Fc fusion protein (Fc fusion, Bivalent VNAR-Fc; also called clone 1-Fc; not shown: glycine/serine linker (GxSx)n extending the hinge; human IgG1 Fc (hinge, CH2, CH3) of pFUSE-hIgG1e3-Fc2; G236 also deleted) ARVDQTPQTITKETGESLTINCVLRDNNCALSTTYWYRKKSGSTNEENISKGGRYVETVNSGSKSFSLKINDLTVEDSGTYRCNVRDVQACGNDWVWLDVYGGGTVVTVNA: no binding
- Clone 12 VNAR-Fc fusion protein (Fc fusion, Bivalent VNAR-Fc; not shown: glycine/serine linker (GxSx)n extending the hinge; human IgG1 Fc (hinge, CH2, CH3) of pFUSE-hIgG1e3-Fc2; G236 also deleted) ARVDQTPQTITKETGESLTINCVLRDSICALSSTHWYRKKSGSTNEESISKGGRYVETVNSGSKSFSLRINDLTVEDSGTYRCKVVRSGVGPCWADVYGGGTAVTVNA: no binding
- Clone 10 VNAR-Fc fusion protein (Fc fusion, Bivalent VNAR-Fc; also called clone 10-Fc; Clone 10-hFc; not shown: glycine/serine linker (GxSx)n extending the hinge; human IgG1 Fc (hinge, CH2, CH3) of pFUSE-hIgG1e3-Fc2; G236 also deleted) ARVDQTPQTITKETGESLTINCVLRDSNCALSSTYWYRKKSGSTNEENISKGGRYVETVNSGSKSFSLRINDLTVEDSGTYRCNVVQYPSYNNYFWCDVYGDGTAVTVNA: no binding
